system: Citrate synthase, peroxisomal (Saccharomyces cerevisiae (strain ATCC 204508 / S288c)) (UniProt P08679)
Sequence (P08679 whole entry, looked up): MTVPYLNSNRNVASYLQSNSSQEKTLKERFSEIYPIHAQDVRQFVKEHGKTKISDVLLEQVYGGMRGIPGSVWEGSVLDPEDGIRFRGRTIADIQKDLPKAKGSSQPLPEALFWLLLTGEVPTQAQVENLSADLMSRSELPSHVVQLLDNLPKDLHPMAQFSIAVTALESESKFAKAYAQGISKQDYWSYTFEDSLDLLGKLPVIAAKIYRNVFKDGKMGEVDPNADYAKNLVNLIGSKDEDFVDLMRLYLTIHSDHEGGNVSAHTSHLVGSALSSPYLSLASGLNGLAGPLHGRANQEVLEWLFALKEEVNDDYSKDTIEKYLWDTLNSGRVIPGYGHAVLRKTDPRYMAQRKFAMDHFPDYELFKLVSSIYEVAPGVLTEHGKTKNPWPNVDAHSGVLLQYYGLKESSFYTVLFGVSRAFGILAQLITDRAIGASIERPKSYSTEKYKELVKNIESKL
protocol details: CIT2-GFP expression modulators in yeast, dose response, flow cytometry, MLPCN hits (AID 2744)
condition context: S. cerevisiae CIT2-GFP strain, 3 h, at 33 µM (top of the series)
Active and inactive are the calls of the source.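 The calls were made as follows: active = fitted half-maximal concentration for changing reporter fluorescence at or below a set limit; inactive = the rest.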
result type: GFP fluorescence, higher = induction

{"columns": ["molecule", "value observed"],
 "data": [
  ["COc1ccc(N2C(=O)CC(Sc3ncn[nH]3)C2=O)c(OC)c1 (configuration not stated)", "inactive"],
  ["COc1ccccc1NC1=C(Cl)C(=O)N(c2ccccc2)C1=O", "inactive"],
  ["Clc1cnc(N/N=C/c2cccs2)c(Cl)c1", "inactive"],
  ["CCCCCCCCC/C(=N\\O)c1ccccn1", "inactive"]
]}

Request: For the molecule Cc1cc(C)c2c(c1)/C(=C/C(=O)c1ccc(Br)s1)C(=O)N2 , what GFP fluorescence, higher = induction is on record?
Response: inactive

Request: CCOC(=O)c1c(C)oc2c1c(C(c1ccncc1)N1CCOCC1)c(O)c1ccccc12 (configuration not stated) , same question.
Response: inactive

Request: C/C(=N/NC(=O)c1ccc(C(C)(C)C)cc1)c1ccccn1 , same question.
Response: inactive
